Just for reference, ChEMBL document CHEMBL4385646 is where these values come from.

test: Apparent permeability from apical to basolateral side in human Caco2 cells at 25 uM measured up to 2 hrs by LC/MS/MS analysis; type: ADME, cell-based; conditions: Caco-2
EXPERIMENTAL READOUT: Papp A→B at 2 h, 25 µM (×10⁻⁶ cm/s)
Provide only the numeric value, understood in ×10⁻⁶ cm/s.

Q: Retrieve Papp A→B at 2 h, 25 µM measured for Cc1cc(C(=O)[O-])c2c(C(C)C)nn(-c3ccc(Cl)cc3)c2n1.[Na+] and print it.
Ans: 22.5

Q: Quick one: give measured Papp A→B at 2 h, 25 µM for Cc1cc(C(=O)O)c2c(C(C)C)nn(-c3ccc(Cl)cc3)c2n1
Ans: 51.8
